protocolText: Inhibition of SARS-CoV-2 MPro H172Y mutant
Set-up: species or system Severe acute respiratory syndrome coronavirus 2
measurementLabel: pIC50
The value called pIC50 is obtained by taking minus log10 of the concentration in mol/L.

smilesInput	pIC50
C=CC(=O)[C@H](Cc1ccccc1)NC(=O)[C@H](CC(C)C)NC(=O)COc1ccc(Cl)cc1Cl	5.89

Q: Consider the compound C=CC(=O)[C@H](Cc1cccc(Cl)c1)NC(=O)[C@H](CC(C)C)NC(=O)CSc1ccccc1 and give its measured pIC50.
A: 6.53
